These entries and their values trace back to PubChem BioAssay (NCI).

Test system: SK-MEL-2 melanoma
Assay: NCI tumour cell line growth inhibition, 48 h
Value type: TGI (µM)
Reply numerically in µM, unit not repeated.

(Q) Using known records, supply TGI for Oc1[nH]c2ccccc2c1N=NC(=S)N1CCCC1
(A) 33.2

(Q) Using known records, supply TGI for CC[C@@]1(OC(=O)CN)C(=O)OCc2c1cc1n(c2=O)Cc2cc3c(N)c4c(cc3nc2-1)OCO4
(A) 0.327

(Q) Using known records, supply TGI for C=C=[CH][Sn]([c]1ccccc1)([c]1ccccc1)[c]1ccccc1
(A) 3.71

(Q) Using known records, supply TGI for CNCCOc1nc2c3cnccc3cc(-c3cc(OC)c(OC)c(OC)c3)c2c2ccncc12
(A) 0.683

(Q) Using known records, supply TGI for N#CC[C@H](C1CCCC1)n1cc(-c2ncnc3[nH]ccc23)cn1
(A) 78.2

(Q) Using known records, supply TGI for CCCc1ccc(OCC(=O)N/N=C/c2c(-c3ccccc3)[nH]c3ccccc23)cc1
(A) 15.3

(Q) Using known records, supply TGI for Cc1cc2c(C(C)C)c(O)c(O)c(C=O)c2c(O)c1-c1c(C)cc2c(C(C)C)c(O)c(O)c(C=O)c2c1O (tested in a mixture with another compound)
(A) 4.07

(Q) Using known records, supply TGI for O=C(NO)c1cnc(N2CCN(S(=O)(=O)c3ccc4ccccc4c3)CC2)nc1
(A) 0.214
